target: Histone deacetylase 5 (Homo sapiens, UniProt Q9UQL6); test: Inhibition of human recombinant HDAC5 using fluorogenic HDAC substrate class 2a after 30 mins by fluorimetrc method
Sequence (Q9UQL6 whole entry): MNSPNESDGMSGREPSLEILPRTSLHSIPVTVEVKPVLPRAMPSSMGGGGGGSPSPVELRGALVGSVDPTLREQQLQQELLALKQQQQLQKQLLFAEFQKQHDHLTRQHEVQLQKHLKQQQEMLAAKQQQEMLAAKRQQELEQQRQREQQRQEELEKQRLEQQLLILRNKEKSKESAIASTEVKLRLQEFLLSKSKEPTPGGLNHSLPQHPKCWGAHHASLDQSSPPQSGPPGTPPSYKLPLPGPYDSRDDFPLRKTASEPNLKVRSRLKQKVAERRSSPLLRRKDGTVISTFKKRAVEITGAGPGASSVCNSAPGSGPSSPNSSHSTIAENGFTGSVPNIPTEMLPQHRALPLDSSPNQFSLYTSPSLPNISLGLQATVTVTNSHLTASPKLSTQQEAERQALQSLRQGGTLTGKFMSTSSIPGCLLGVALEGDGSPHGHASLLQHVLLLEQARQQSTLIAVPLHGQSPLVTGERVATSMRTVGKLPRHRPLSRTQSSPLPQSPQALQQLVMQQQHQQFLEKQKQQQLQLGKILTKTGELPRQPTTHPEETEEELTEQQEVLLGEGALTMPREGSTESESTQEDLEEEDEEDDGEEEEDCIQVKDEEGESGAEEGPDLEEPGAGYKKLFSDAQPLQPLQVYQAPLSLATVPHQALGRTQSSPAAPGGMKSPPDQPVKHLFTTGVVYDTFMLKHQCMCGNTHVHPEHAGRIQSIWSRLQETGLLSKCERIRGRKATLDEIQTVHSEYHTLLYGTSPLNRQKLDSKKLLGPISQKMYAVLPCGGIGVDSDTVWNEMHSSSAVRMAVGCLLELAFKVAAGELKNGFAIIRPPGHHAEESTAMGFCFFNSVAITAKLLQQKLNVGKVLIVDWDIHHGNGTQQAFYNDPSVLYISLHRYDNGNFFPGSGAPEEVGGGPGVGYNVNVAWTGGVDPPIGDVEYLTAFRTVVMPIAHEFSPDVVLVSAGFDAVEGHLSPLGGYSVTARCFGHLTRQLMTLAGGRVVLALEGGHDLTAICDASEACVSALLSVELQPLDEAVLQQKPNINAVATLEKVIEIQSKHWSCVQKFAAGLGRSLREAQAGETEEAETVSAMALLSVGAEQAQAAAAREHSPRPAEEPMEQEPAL
pKi: −log10 of the molar value.
Reported values of pKi for individual entries

COMPOUND: COc1ccc(Nc2c(NCCCCCC(=O)NO)c(=O)c2=O)cc1
pKi: 6.00
--
COMPOUND: CC(Nc1c(NCCCCCC(=O)NO)c(=O)c1=O)C12CC3CC(CC(C3)C1)C2 (centres undefined)
pKi: 5.38
--
COMPOUND: Cn1cc(CNCC2CCN(c3ncc(C(=O)NO)cn3)CC2)c2ccccc21
pKi: 8.37
--
COMPOUND: CC(C)(CCCCC(=O)NO)Nc1c(Nc2ccc(C(F)(F)F)cc2)c(=O)c1=O
pKi: 6.44

====

experiment: Clearance in human hepatocytes assessed per million cells at 1 uM after 5 to 90 mins by LC-MS/MS analysis; format: ADME, cell-based, Hepatocyte; settings: read-out: CLH
Reported values of hepatocyte CLint at 1 µM for individual entries
ASSAY_METRIC: hepatocyte CLint at 1 µM

MOLECULE: Cc1ccccc1Nc1c(NCCCCCC(=O)NO)c(=O)c1=O
ASSAY_METRIC: hepatocyte CLint at 1 µM
RESULT: < 5 µL/min/1e6 cells
//
MOLECULE: O=C(CCCCCNc1c(NC2CCCCC2)c(=O)c1=O)NO
ASSAY_METRIC: hepatocyte CLint at 1 µM
RESULT: < 5 µL/min/1e6 cells
//
MOLECULE: CCC(CCCCC(=O)NO)Nc1c(Nc2ccc(C(F)(F)F)cc2)c(=O)c1=O (racemic)
ASSAY_METRIC: hepatocyte CLint at 1 µM
RESULT: 25 µL/min/1e6 cells
//
MOLECULE: C[C@H](CCCCC(=O)NO)Nc1c(Nc2ccc(N(C)C)cc2)c(=O)c1=O
ASSAY_METRIC: hepatocyte CLint at 1 µM
RESULT: < 5 µL/min/1e6 cells
//
MOLECULE: COc1ccc(Nc2c(NC3(CCCCC(=O)NO)CCC3)c(=O)c2=O)cc1
ASSAY_METRIC: hepatocyte CLint at 1 µM
RESULT: 17 µL/min/1e6 cells

====

Reported values of pKi for individual entries
Molecular target: Histone deacetylase 8 (Homo sapiens)
Sequence (Q9BY41 whole entry): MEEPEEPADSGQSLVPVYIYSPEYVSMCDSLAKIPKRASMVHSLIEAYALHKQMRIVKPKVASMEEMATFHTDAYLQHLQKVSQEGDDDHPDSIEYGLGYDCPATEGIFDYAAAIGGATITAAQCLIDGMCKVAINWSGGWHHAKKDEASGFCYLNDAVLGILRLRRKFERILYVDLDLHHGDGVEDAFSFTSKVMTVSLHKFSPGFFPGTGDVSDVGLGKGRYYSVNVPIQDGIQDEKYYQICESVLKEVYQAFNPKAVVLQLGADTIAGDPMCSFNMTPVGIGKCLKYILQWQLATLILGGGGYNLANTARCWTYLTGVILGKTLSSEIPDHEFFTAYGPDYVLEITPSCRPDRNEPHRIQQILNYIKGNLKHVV
Experiment: Inhibition of human recombinant HDAC8 using fluorogenic HDAC substrate after 15 mins by fluorimetrc method
pKi: −log10 of the molar value.
ASSAY_METRIC: pKi

MOLECULE: CC(C)(CCCCC(=O)NO)Nc1c(Nc2ccc(C(F)(F)F)cc2)c(=O)c1=O
ASSAY_METRIC: pKi
RESULT_NUMBER: 6.96

MOLECULE: CC(Nc1c(NCCCCCC(=O)NO)c(=O)c1=O)C12CC3CC(CC(C3)C1)C2 (stereo not drawn)
ASSAY_METRIC: pKi
RESULT_NUMBER: 6.49

MOLECULE: COc1ccc(Nc2c(NCCCCCC(=O)NO)c(=O)c2=O)cc1
ASSAY_METRIC: pKi
RESULT_NUMBER: 7.00
